- STUDY TARGET: ATP-dependent translocase ABCB1 (Mus musculus)
- Sequence (P06795 whole entry): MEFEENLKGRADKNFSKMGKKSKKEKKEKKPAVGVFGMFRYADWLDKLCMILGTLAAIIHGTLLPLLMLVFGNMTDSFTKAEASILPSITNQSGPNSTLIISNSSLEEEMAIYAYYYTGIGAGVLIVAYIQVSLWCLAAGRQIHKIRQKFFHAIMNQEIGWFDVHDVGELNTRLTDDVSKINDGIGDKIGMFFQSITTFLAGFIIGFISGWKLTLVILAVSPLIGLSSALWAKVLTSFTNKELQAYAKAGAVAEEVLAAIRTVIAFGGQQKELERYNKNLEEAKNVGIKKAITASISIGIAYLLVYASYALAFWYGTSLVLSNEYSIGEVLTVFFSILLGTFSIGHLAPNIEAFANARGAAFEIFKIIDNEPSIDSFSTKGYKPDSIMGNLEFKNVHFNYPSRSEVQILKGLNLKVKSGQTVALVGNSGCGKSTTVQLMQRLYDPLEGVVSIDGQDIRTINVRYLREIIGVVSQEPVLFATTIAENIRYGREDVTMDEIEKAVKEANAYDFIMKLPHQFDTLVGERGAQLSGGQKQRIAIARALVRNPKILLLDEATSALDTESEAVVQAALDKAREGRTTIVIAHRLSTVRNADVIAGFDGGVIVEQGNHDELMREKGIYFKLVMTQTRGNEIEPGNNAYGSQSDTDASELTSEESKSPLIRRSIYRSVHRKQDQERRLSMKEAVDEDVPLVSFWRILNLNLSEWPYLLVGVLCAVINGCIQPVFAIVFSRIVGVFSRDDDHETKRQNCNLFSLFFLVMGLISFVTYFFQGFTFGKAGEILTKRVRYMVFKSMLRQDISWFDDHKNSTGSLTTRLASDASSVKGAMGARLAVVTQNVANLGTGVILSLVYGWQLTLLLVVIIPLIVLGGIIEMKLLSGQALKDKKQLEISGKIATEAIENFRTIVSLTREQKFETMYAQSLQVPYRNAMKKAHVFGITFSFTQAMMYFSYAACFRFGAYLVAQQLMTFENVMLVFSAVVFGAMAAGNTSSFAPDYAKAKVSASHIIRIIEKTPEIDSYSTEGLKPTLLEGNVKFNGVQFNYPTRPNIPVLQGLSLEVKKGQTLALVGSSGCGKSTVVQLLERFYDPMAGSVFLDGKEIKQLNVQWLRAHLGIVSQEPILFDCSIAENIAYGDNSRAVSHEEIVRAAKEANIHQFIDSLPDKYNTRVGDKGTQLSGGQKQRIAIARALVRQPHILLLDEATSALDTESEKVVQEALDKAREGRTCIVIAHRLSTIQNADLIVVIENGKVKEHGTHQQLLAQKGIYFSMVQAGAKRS
- METHOD NOTES: Inhibition of P-glycoprotein in MDR mouse T lymphoma cells using rhodamine 123 assessed as ratio of fluorescent uptake relative to untreated control at 10 uM in MDR reversal assay by flow cytometry
- Assay type: cell-based
Short version: Activity at least 5 is Satisfied, less is Not satisfied.

>  <MOLECULE>
COc1ccccc1C1C=CN(C(=O)Oc2ccccc2)C=C1C(C)=O (stereo unspecified)

>  <STUDY TARGET>
ATP-dependent translocase ABCB1 (Mus musculus)

>  <CLASS NAME>
Satisfied

$$$$
>  <MOLECULE>
CCOC(=O)C1=CN(C(=O)Oc2ccccc2)C=CC1c1ccccc1OC (stereo unspecified)

>  <STUDY TARGET>
ATP-dependent translocase ABCB1 (Mus musculus)

>  <CLASS NAME>
Satisfied

$$$$
>  <MOLECULE>
CCOC(=O)C1=CN(C(=O)Oc2ccccc2)C=CC1c1ccc(C)cc1 (stereo unspecified)

>  <STUDY TARGET>
ATP-dependent translocase ABCB1 (Mus musculus)

>  <CLASS NAME>
Not satisfied

$$$$
>  <MOLECULE>
CCOC(=O)C1=CN(C(=O)Oc2ccccc2)C=CC1c1ccc(OC)cc1 (stereo unspecified)

>  <STUDY TARGET>
ATP-dependent translocase ABCB1 (Mus musculus)

>  <CLASS NAME>
Satisfied

$$$$
>  <MOLECULE>
CC(=O)C1=CN(C(=O)Oc2ccccc2)C=CC1c1ccc(C)cc1 (stereo unspecified)

>  <STUDY TARGET>
ATP-dependent translocase ABCB1 (Mus musculus)

>  <CLASS NAME>
Not satisfied

$$$$
>  <MOLECULE>
COc1ccc(C2C=CN(C(=O)Oc3ccccc3)C=C2C(C)=O)cc1 (stereo unspecified)

>  <STUDY TARGET>
ATP-dependent translocase ABCB1 (Mus musculus)

>  <CLASS NAME>
Satisfied

$$$$

Hey, just so you know, these numbers are from ChEMBL document CHEMBL1143712.
